# pIC50 against Tyrosine-protein kinase JAK3 (Homo sapiens, UniProt P52333), merged from multiple literature sources
pIC50: −log10 of the molar value.

Study these solved cases before continuing.
Entry Smiles: CN(c1ncnc2[nH]ccc12)[C@@H]1CN(C(=O)CC#N)CC12CC2
Observed: < 6.00
--
Entry Smiles: CCc1cc(O)c(F)cc1-c1nc(NCc2ccccc2N(C)S(C)(=O)=O)c2c(C(=O)NC)n[nH]c2n1
Observed: 7.56
--
Entry Smiles: Cn1c(=O)n([C@H]2CC[C@H](O)CC2)c2nc(-n3cnc4ccc(C#N)cc43)nc(-c3ccncc3)c21
Observed: > 7.00
--
Entry Smiles: Nc1ncnc2c1c(-c1ccc(C(=O)Nc3cc(C(F)(F)F)ccn3)cc1)nn2[C@@H]1CCN(C(=O)/C=C/CNC2CC2)C1
Observed: < 5.00
--
Entry Smiles: CC#CC(=O)N1CC[C@@H](n2nc(-c3ccc(C(=O)Nc4cc(C(F)(F)F)ccn4)cc3)c3c(N)ncnc32)C1
Observed: < 6.00
--
Entry Smiles: CC#CCn1ccc2cnc(Nc3cnn(CC(=O)OCC)c3)nc21
Observed: > 7.00
--
Entry Smiles: Cn1c(=O)n([C@H]2CC[C@H](O)CC2)c2nc(-n3cnc4ccc(Cl)cc43)nc(N3CCC(F)CC3)c21
Observed: > 7.00

For the next question, use this molecule.
Param readout = pIC50; param system = Tyrosine-protein kinase JAK3 (Homo sapiens, UniProt P52333); param query = `CN(c1ncnc2[nH]ccc12)C1CC2(C1)CN(C(=O)c1ccc(F)cc1)C2` ; response: value ≤ 5.00
